// reported OD450 nm for each item listed
# Measurement target: T1, human MSLN-hFc protein (Acro, Cat. No. MSN-H5253) (human, UniProt Q13421 296-580)
# T1 construct: bought protein; also called human MSLN full-length protein; not shown: human Fc (hFc) of the bought protein
# T1 sequence (Q13421 other isoform, or with tags, fused parts or gaps limits assumed): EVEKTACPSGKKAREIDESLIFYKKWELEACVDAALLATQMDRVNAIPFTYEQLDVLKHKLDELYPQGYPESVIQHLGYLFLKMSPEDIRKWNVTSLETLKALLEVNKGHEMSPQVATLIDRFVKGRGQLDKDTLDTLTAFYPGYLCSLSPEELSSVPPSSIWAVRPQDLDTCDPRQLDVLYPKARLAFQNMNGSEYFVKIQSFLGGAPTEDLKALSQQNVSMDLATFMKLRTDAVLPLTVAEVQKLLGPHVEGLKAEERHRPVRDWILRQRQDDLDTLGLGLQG
# Test: ELISA, coated human MSLN-hFc, antibody 0.0001 nM
Write the number on its own, no unit after it.

// known answers, use as guide
F2.23.12-H13 (scFv, not shown: small tags and cut ends, also called S009-F2.23.12 humanized VH4 + VL1) scFv: EVQLVQSGAEVKKPGASVKVSCKASGYTFTNYWMHWVRQAPGQGLEWMGNINPSQGGPYYNERFRSRVTMTVDKSTSTAYMELSSLRSEDTAVYYCARPYYGSSYGYFDYWGQGTTVTVSSGGGGSGGGGSGGGGSDIQMTQSPSSLSASVGDRVTITCKASQDINKYIAWYQQKPGKAPKLLIHYTSELQPGVPSRFSGSGSGTDFTFTISSLQPEDIATYYCLQYANPLRTFGGGTKVEIK
0.05
F2.23.12-H8 (scFv, not shown: small tags and cut ends, also called S009-F2.23.12 humanized VH2 + VL4) scFv: EVQLVQSGAEVKKPGASVKVSCKASGYTFTNYWMHWVRQAPGQGLEWMGNINPSNGGPYYNERFRSRVTMTVDKSTSTAYMELSSLRSEDTAVYYCARPYYGSSYGYFDYWGQGTTVTVSSGGGGSGGGGSGGGGSDIQMTQSPSSLSASVGDRVTITCKASQDINKYIAWYQHKPGKAPKLLIHYTSELQPGVPSRFSGSGSGRDYTFTISSLQPEDIATYYCLQYANPLRTFGGGTKVEIK
0.05

Turning now to a further record.
(Q) Sample F2.23.12-H1 (scFv, not shown: small tags and cut ends, also called S009-F2.23.12 humanized VH1 + VL1) scFv: EVQLVQSGAEVKKPGASVKVSCKASGYTFTNYWMHWVRQAPGQGLEWMGNINPSNGGPYYNERFRSRVTMTVDKSTSTVYMELSSLRSEDTAVYYCARPYYGSSYGYFDYWGQGTTVTVSSGGGGSGGGGSGGGGSDIQMTQSPSSLSASVGDRVTITCKASQDINKYIAWYQQKPGKAPKLLIHYTSELQPGVPSRFSGSGSGTDFTFTISSLQPEDIATYYCLQYANPLRTFGGGTKVEIK — what was its OD450 nm?
(A) 0.07

Origin of measurements: patent US20250250357A1
